assayedTarget: CCK receptor (brain, cerebral cortex) (Cavia porcellus, UniProt H0VZC5)
Construct: Cerebral cortex was dissected and used as a receptor source; from tissue; host or cells: guinea pig cerebral cortex membranes (male Hartley)
Sequence (H0VZC5 1-426): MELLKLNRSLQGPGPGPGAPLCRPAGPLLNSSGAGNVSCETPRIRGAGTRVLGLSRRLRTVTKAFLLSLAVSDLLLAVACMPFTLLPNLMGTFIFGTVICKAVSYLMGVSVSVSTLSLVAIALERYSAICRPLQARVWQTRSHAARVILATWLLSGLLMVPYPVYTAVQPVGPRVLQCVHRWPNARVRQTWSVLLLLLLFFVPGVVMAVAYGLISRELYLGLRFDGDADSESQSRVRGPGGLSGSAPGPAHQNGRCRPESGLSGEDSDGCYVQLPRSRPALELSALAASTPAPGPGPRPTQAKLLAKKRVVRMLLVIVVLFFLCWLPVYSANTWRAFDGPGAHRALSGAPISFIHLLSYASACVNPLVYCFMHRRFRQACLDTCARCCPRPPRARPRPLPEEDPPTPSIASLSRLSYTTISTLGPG
measurementNotes: biochemical
Type: binding, Male Hartley guinea pigs
recordedConditions: IC50 ^125 I-CCK Brain, guinea pig cerebral cortex, ^125 I-CCK-33, 25° C., 2 hours
reportedMetric: IC50

compound="CCOC(=O)CN1C(=O)C(NC(=O)c2ccccc2Cl)N=C(c2ccccc2F)c2ccccc21 (stereo not shown)" reportedmetric=IC50 assayvalue="3.2 µM"
compound="CSc1ccc(C(=O)NC2N=C(c3ccccc3)c3ccccc3NC2=O)cc1 (racemic)" reportedmetric=IC50 assayvalue="23 µM"
compound=O=C1Nc2ccc(Cl)cc2C(c2ccccc2)=N[C@@H]1Cc1c[nH]c2ccccc12 reportedmetric=IC50 assayvalue="100 µM"
compound="O=C(NC1N=C(c2ccccc2)c2ccccc2NC1=O)c1cc(Cl)cc(Cl)c1 (racemic)" reportedmetric=IC50 assayvalue="> 100 µM"
compound="O=C(NC1N=C(c2ccccc2F)c2ccccc2NC1=O)c1ccc(Cl)cc1 (racemic)" reportedmetric=IC50 assayvalue="40 µM"

Hi, could you look up IC50 for each item in my list?
1. O=C(O)CN1C(=O)C(NC(=O)c2cc3ccccc3[nH]2)N=C(c2ccccc2)c2ccccc21 (racemic)
2. CCOC(=O)CN1C(=O)C(NC(=O)Nc2ccc(Cl)cc2)N=C(c2ccccc2)c2ccccc21 (stereo not shown)

[out]
1. 5.5 µM
2. 0.001 µM

Hi, could you look up IC50 for each item in my list?
1. CN1C(=O)[C@H](N)N=C(c2ccccc2)c2ccccc21 [Example 85b]
2. CN1C(=O)C(NC(=O)c2ccsc2)N=C(c2ccccc2F)c2ccccc21 (stereo not shown)
3. CN1C(=O)[C@H](NC(=O)c2ccc(C(F)(F)F)cc2)N=C(c2ccccc2)c2ccccc21

[out]
1. > 100 µM
2. 26 µM
3. 3.3 µM

###

assayedTarget: Gastrin receptor (gastric glands) (Cavia porcellus)
Construct: The washed guinea pig gastric glands prepared as above were resuspended; from tissue; host or cells: guinea pig gastric mucosal glands (male Hartley)
Sequence (H0VZC5 1-426): as above
measurementNotes: Gastrin Receptor Binding in Guinea Pig Gastric Glands
Set-up: species or system guinea pig (male Hartley)
recordedConditions: ^125 I-gastrin, 25° C., 30 minutes, read-out: IC50 ^125 I-Gastrin Gastric Glands
reportedMetric: pIC50
Numbers only, as −log10 of the molar value.

compound="CCOC(=O)CCN1C(=O)C(NC(=O)OCc2ccccc2)N=C(c2ccccc2)c2ccccc21 (stereo not drawn) [Example 229]" assayvalue=6.59
compound="CN1C(=O)C(NC(=O)c2ccc(Cl)cc2)N=C(c2ccccc2F)c2ccccc21 (racemic) [Example 80]" assayvalue=5.54
compound="COc1ccccc1NC(=O)NC1N=C(c2ccccc2)c2ccccc2N(C)C1=O (stereo not drawn) [Example 278]" assayvalue=6.00

Hi, could you look up pIC50 for each item in my list?
1. CN1C(=O)[C@H](NC(=O)c2cc3ccccc3[nH]2)N=C(c2ccccc2F)c2ccccc21 [Example 89]
2. CCOC(=O)CN1C(=O)C(NC(=O)NC(C)C)N=C(c2ccccc2F)c2ccccc21 (stereo not drawn) [Example 205]

[out]
1: 6.62; 2: 4.48

Hi, could you look up pIC50 for each item in my list?
1. CN1C(=O)C(C(=O)Nc2ccc(Cl)cc2)N=C(c2ccccc2)c2ccccc21 (stereo not drawn) [Example 197]
2. CN1C(=O)C(C(=O)c2ccsc2)N=C(c2ccccc2)c2ccccc21 (racemic) [Example 48]

[out]
5.00
5.08
